subject of test: C-C chemokine receptor type 6 (Homo sapiens) (UniProt P51684)
assay info: potency against CXCR6 with APJ panel – cell-based, beta-arrestin, DiscoveRx, uHTS hits, dose response (AID 624129)
experimental context: CXCR6 beta-arrestin (DiscoveRx) antagonist cell assay, CCR6, run 2, dose range 1
measurement label: pIC50
// scale note: pIC50 = -log10(conc_M); give the bare number

C=CS(=O)(=O)c1c2cc(OC)ccc2nc2ccc(OC)cc12    4.90
Cc1ccc(S(=O)(=O)c2ccc([N+](=O)[O-])o2)cc1    5.08
O=C(Nc1nccs1)c1sc2cc(Cl)ccc2c1Cl    4.97
CNC(=O)c1nnsc1S(=O)(=O)c1ccc(Cl)cc1    4.87

Could you now consider this next compound?
Q: Fill in the blank: the reported pIC50 of CCCCOc1ccc(C(=O)NNC(=S)NC(=O)CC)cc1 is ____.
Result: 5.04

* * *

Here, each record is paired with measured IC50 data.
subject of test: Apelin receptor (Homo sapiens) (UniProt P35414)
assay info: potency against CXCR6 with APJ panel – cell-based, beta-arrestin, DiscoveRx, uHTS hits, dose response (AID 624129)
experimental context: CXCR6 beta-arrestin (DiscoveRx) antagonist cell assay, APJ, run 2, dose range 1

CC(=O)OCCCNc1cc(Sc2ccc(C)cc2)c2nonc2c1[N+](=O)[O-]    > 80 µM
CCOC(=O)c1c(C)oc2c1c(C=NCc1ccccn1)c(O)c1ccccc12    > 80 µM
CCOC(=O)c1c(SCCN2CCCC2)n(-c2ccccc2)c(=S)n(-c2ccccc2)c1=O    > 80 µM

Q: Fill in the blank: the reported IC50 of Cc1cccc(C(=O)Nc2ccc(C(=O)/C=C/c3ccncc3)cc2)c1 is ____.
Result: > 80 µM

* * *

subject of test: Apelin receptor (Homo sapiens)
assay info: potency against CXCR6 with APJ panel – cell-based, beta-arrestin, DiscoveRx, uHTS hits, dose response (AID 624129)
experimental context: CXCR6 beta-arrestin (DiscoveRx) antagonist cell assay, APJ, run 3, dose range 1
Threshold check on IC50: strictly below 6 µM is Satisfied; on or above 6 µM is Not satisfied.

Sample answers from the record:
Cc1cc(Cl)n2c(nc3cc(F)c(F)cc32)c1C#N    Not satisfied
CC(=O)NC(=S)Nc1sc2c(c1C(N)=O)CCC(C)C2 (stereo not given)    Not satisfied
Cc1ccccc1Oc1cc(-n2ncc(Cl)c(Cl)c2=O)ncn1    Not satisfied
C/C(=N\NC(=O)COc1ccccc1-c1ccccc1)c1ccccn1    Not satisfied
COc1ccc(OC)c(NC(=O)c2nc(S(=O)(=O)Cc3ccccc3)ncc2Cl)c1    Not satisfied

Q: Hi there! Is IC50 for COc1ccccc1C(=O)NNC(=S)NC(=O)c1cccs1 below 6 µM, do you know?
Result: Not satisfied

Q: Hi there! Is IC50 for COCc1cc(=O)[nH]c(Nc2nc3ccc(C)cc3o2)n1 below 6 µM, do you know?
Result: Not satisfied

Q: Hi there! Is IC50 for O=[N+]([O-])c1ccc(Sc2cccc3cccnc23)c([N+](=O)[O-])c1 below 6 µM, do you know?
Result: Satisfied

Q: Hi there! Is IC50 for CCOc1cc(Br)c(Br)c(C=Nc2ccc(NC(C)=O)cc2)c1O below 6 µM, do you know?
Result: Not satisfied

Q: Hi there! Is IC50 for O=[N+]([O-])c1cc(Cc2ccccc2)cc(C=Nc2ccc(N3CCOCC3)cc2)c1O below 6 µM, do you know?
Result: Not satisfied

Q: Hi there! Is IC50 for O=C(Nc1nccs1)c1sc2cc(Cl)ccc2c1Cl below 6 µM, do you know?
Result: Not satisfied

Q: Hi there! Is IC50 for COc1ccc(C(=O)N/N=C(\C)c2ccccn2)cc1OC below 6 µM, do you know?
Result: Satisfied

Q: Hi there! Is IC50 for Cc1[nH]n(-c2ccccc2)c(=S)c1C=NCCCN=Cc1c(C)[nH]n(-c2ccccc2)c1=S below 6 µM, do you know?
Result: Satisfied
